# testedSystem: human AMPK (full-length γ1, β1 and α1 subunits) (Homo sapiens (Human), UniProt Q13131+Q9Y478)
# Sequence (Q13131 whole entry): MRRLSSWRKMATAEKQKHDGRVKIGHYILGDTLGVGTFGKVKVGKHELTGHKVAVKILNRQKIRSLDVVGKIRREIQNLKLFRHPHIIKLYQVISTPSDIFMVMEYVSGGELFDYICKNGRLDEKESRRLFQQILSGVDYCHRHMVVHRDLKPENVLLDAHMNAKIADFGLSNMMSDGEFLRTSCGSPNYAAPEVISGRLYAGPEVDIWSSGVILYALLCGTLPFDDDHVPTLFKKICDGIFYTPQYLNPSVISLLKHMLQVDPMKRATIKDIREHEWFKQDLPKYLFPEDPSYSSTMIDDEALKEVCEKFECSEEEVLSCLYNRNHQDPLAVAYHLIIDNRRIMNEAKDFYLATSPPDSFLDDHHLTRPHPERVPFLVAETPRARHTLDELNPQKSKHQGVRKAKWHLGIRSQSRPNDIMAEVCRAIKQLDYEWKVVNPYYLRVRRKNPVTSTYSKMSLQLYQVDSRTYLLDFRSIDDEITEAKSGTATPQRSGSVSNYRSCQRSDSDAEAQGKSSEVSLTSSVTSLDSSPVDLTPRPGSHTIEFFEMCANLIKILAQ
# Sequence (Q9Y478 whole entry): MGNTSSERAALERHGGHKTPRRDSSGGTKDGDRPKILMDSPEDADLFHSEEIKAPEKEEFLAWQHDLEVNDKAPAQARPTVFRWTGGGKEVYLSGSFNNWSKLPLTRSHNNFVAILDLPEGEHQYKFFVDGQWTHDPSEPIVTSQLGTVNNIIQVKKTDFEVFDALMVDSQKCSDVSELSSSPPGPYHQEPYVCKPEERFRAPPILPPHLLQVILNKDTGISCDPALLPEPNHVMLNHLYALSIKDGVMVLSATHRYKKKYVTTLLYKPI
# Sequence (P54619 whole entry partner): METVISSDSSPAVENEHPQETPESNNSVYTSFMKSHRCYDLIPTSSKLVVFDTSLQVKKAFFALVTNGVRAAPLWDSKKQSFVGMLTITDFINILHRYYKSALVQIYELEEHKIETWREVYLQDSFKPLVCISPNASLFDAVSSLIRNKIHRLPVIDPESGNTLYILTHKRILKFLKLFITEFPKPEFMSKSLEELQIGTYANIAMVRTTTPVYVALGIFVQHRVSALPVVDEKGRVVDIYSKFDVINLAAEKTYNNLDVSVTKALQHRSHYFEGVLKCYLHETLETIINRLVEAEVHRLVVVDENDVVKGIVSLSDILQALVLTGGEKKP
# testName: AMPK in vitro biochemical assay (33P-based, SAMS peptide, PP2A dephosphorylation)
# conditions: activation of phosphorylated AMPK; 33P-ATP, SAMS peptide, PP2A treatment; 4-parameter fit
outcomeMeasure: pEC50
// field semantics: pEC50 = negative decimal log of concentration (mol/L)

{"columns": ["compound", "pEC50"],
 "data": [
  ["CN1CCN(c2ccc(-c3cc4c(C(=O)O)n[nH]c4cc3Cl)cc2)CC1 [Example 106]", 7.14],
  ["O=C(O)c1n[nH]c2cc(Cl)c(-c3ccc4c(c3)CCC4)cc12 [Example 116]", 7.32],
  ["O=C(O)c1c[nH]c2cc(Cl)c(-c3ccc(C4(CO)CCC4)cc3F)cc12 [Example 164]", 7.76],
  ["CC(O)(c1ccc(-c2cc3c(C(=O)O)n[nH]c3cc2Cl)cc1)C(F)(F)F (stereo not drawn) [Example 108]", 7.03],
  ["COc1ccc(-c2cc3c(C(=O)O)n[nH]c3cc2Cl)cc1 [Example 97]", 6.69]
]}

Please report the recorded pEC50 for O=C(O)c1n[nH]c2cc(Cl)c(-c3ccc(C4CCOCC4)cc3)cc12 [Example 104] .
7.44

Now give it for O=C(O)c1n[nH]c2cc(Cl)c(-c3ccc(CO)cc3)cc12 [Example 111] too.
6.76

Now give it for O=C(O)c1c[nH]c2cc(Cl)c(-c3ccc(OCCCC4COC4)cc3)cc12 [Example 157] too.
7.30

Now give it for CC(=O)NCCOc1ccc(-c2cc3c(C(=O)O)c[nH]c3cc2Cl)cc1 [Example 10] too.
7.16

* * *

# testedSystem: human AMPK (full-length γ1, β1 and α1 subunits) (Homo sapiens (Human), UniProt Q13131+Q9Y478)
# testName: AMPK in vitro biochemical assay (33P-based, SAMS peptide, PP2A dephosphorylation)
# conditions: counts as % of positive control wells (enzyme, allosteric activator or AMP, PP2A and substrate); read-out: Maximum
Property: Emax; scope: individual compounds
Lab book: enter the figure in %, no units written.

Recorded Emax, per entry:
{"columns": ["compound", "outcomeMeasure", "displayUnit", "valueMeasured"],
 "data": [
  ["CN1CCN(c2ccc(-c3cc4c(C(=O)O)n[nH]c4cc3Cl)cc2)CC1 [Example 106]", "Emax", "%", 94],
  ["CC(=O)N1CC(Oc2ccc(-c3cc4c(C(=O)O)c[nH]c4cc3Cl)cc2)C1 [Example 8]", "Emax", "%", 94],
  ["O=C(O)c1c[nH]c2cc(Cl)c(-c3ccc(C4CCCN4)cc3)cc12 (centres unmarked) [Example 83]", "Emax", "%", 108]
]}

Please report the recorded Emax for O=C(O)c1c[nH]c2cc(F)c(-c3ccc(C4CCCO4)cc3)c(F)c12 (centres unmarked) [Example 152] .
112

Now give it for Cc1cc2[nH]cc(C(=O)O)c2cc1-c1ccc(C2(CO)CC2)cc1 [Example 27] too.
107

* * *

# testedSystem: human AMPK (full-length γ1, β1 and α1 subunits) (Homo sapiens (Human), UniProt Q13131+Q9Y478)
# testName: AMPK in vitro biochemical assay (33P-based, SAMS peptide, PP2A dephosphorylation)
# conditions: counts as % of positive control wells (enzyme, allosteric activator or AMP, PP2A and substrate); read-out: Maximum
Property: Emax; scope: individual compounds
Lab book: enter the figure in %, no units written.

Recorded Emax, per entry:
{"columns": ["compound", "valueMeasured"],
 "data": [
  ["CC(C)Oc1ccc(-c2cc3c(C(=O)O)n[nH]c3cc2Cl)cc1", 80],
  ["COc1cccc(-c2cc3c(C(=O)O)c[nH]c3cc2Cl)c1", 101],
  ["COc1ccc(-c2cc3c(C(=O)O)c[nH]c3cc2F)cc1", 122]
]}

Please report the recorded Emax for O=C(O)c1c[nH]c2cc(Cl)c(-c3ccc(OCCCC4COC4)cc3)cc12 .
96.1

Now give it for Cc1ccc(-c2cc3c(C(=O)O)c[nH]c3cc2Cl)cc1 too.
93

Now give it for O=C(O)c1c[nH]c2cc(Cl)c(-c3ccc(OCC4CCO4)cc3)cc12 (stereo not shown) too.
80

Now give it for O=C(O)c1c[nH]c2cc(Cl)c(-c3ccc(OCCn4cccn4)cc3)cc12 too.
76.2

* * *

# testedSystem: human AMPK (full-length γ1, β1 and α1 subunits) (Homo sapiens (Human), UniProt Q13131+Q9Y478)
# testName: AMPK in vitro biochemical assay (33P-based, SAMS peptide, PP2A dephosphorylation)
# conditions: counts as % of positive control wells (enzyme, allosteric activator or AMP, PP2A and substrate); read-out: Maximum
outcomeMeasure: Emax (%)
Lab book: enter the figure in %, no units written.

{"columns": ["molecule", "Emax, %"],
 "data": [
  ["CC(=O)c1ccc(-c2cc3c(C(=O)O)n[nH]c3cc2Cl)cc1", 84],
  ["O=C(O)c1c[nH]c2cc(Cl)c(-c3ccc(OCCCO)cc3)cc12", 92],
  ["CS(=O)(=O)N1CCCC1c1ccc(-c2cc3c(C(=O)O)c[nH]c3cc2Cl)cc1 (stereo not drawn)", 72]
]}

Please report the recorded Emax for COc1cc(-c2cc3c(C(=O)O)c[nH]c3cc2Cl)ccc1OC[C@@H]1CCCN1 .
87

Now give it for CS(=O)(=O)NC(=O)c1c[nH]c2cc(Cl)c(-c3ccc(C4(O)CCC4)cc3)cc12 too.
132

Now give it for O=C(O)c1c[nH]c2cc(F)c(-c3ccc(C4(CO)CCC4)cc3F)cc12 too.
159

Now give it for COc1ccc(-c2cc3c(C(=O)O)c[nH]c3cc2C#N)cc1 too.
97

Now give it for COc1cc(-c2cc3c(C(=O)O)c[nH]c3cc2Cl)ccc1C(C)(C)O too.
137

* * *

# testedSystem: human AMPK (full-length γ1, β1 and α1 subunits) (Homo sapiens (Human), UniProt Q13131+Q9Y478)
# testName: AMPK in vitro biochemical assay (33P-based, SAMS peptide, PP2A dephosphorylation)
# conditions: activation of phosphorylated AMPK; 33P-ATP, SAMS peptide, PP2A treatment; 4-parameter fit
Property: EC50; scope: individual compounds

{"columns": ["compound", "EC50"],
 "data": [
  ["O=C(O)c1n[nH]c2cc(Cl)c(-c3ccc([C@H]4C[C@H](O)C4)cc3)cc12", "26.8 nM"]
]}

Please report the recorded EC50 for O=C(O)c1c[nH]c2cc(F)c(-c3ccc(C4CCCO4)cc3)cc12 (single isomer, unassigned) [Example 151] .
37.8 nM

Now give it for O=C(O)c1c[nH]c2cc(Cl)c(-c3ccc4c(c3)OC[C@@H](CO)O4)cc12 too.
69.5 nM

Now give it for COc1nc(N2CCOCC2)ccc1-c1cc2c(C(=O)O)c[nH]c2cc1Cl too.
15.3 nM

Now give it for O=S(=O)(O)c1c[nH]c2cc(Cl)c(-c3ccc(-c4ccccc4O)cc3)cc12 too.
> 50000 nM

* * *

# testedSystem: human AMPK (full-length γ1, β1 and α1 subunits) (Homo sapiens (Human), UniProt Q13131+Q9Y478)
# testName: AMPK in vitro biochemical assay (33P-based, SAMS peptide, PP2A dephosphorylation)
# conditions: activation of phosphorylated AMPK; 33P-ATP, SAMS peptide, PP2A treatment; 4-parameter fit
Could you mark each record 1 if its EC50 falls strictly under 100 nM, and -1 if it equals or exceeds it?

Illustrative cases are given below, each with its answer.
{"columns": ["compound", "qualitativeLabel"],
 "data": [
  ["O=C(O)c1c[nH]c2cc(Cl)c(-c3ccc(C4CCNC4)cc3)cc12 (centres unmarked)", -1],
  ["O=C(O)c1c[nH]c2cc(Cl)c(-c3ccc([C@H]4C[C@H](O)C4)cc3)cc12", 1],
  ["COc1nc(-c2cc3c(C(=O)O)c[nH]c3cc2Cl)ccc1N1CCC(O)C1 (centres unmarked)", 1],
  ["O=C(O)c1c[nH]c2cc(F)c(-c3ccc(C4(CO)CC4)cc3)c(F)c12", 1],
  ["O=C(O)c1c[nH]c2cc(Cl)c(-c3ccc(C4CNC4)cc3)cc12", -1]
]}

Please let me know if COc1nc(N2CCC(O)C2)ccc1-c1cc2c(C(=O)O)c[nH]c2cc1Cl (centres unmarked) shows EC50 below 100 nM.
1

Now give it for O=C(O)c1c[nH]c2cc(Cl)c(-c3ccc(OCCCN4CCNCC4)cc3)cc12 too.
1

* * *

Property: pEC50; scope: individual molecules
# testedSystem: human AMPK (full-length γ1, β1 and α1 subunits) (Homo sapiens (Human), UniProt Q13131+Q9Y478)
# testName: AMPK in vitro biochemical assay (33P-based, SAMS peptide, PP2A dephosphorylation)
# conditions: activation of phosphorylated AMPK; 33P-ATP, SAMS peptide, PP2A treatment; 4-parameter fit
// field semantics: pEC50 = negative decimal log of concentration (mol/L)

Recorded pEC50, per entry:
{"columns": ["molecule", "valueMeasured"],
 "data": [
  ["O=C1COC(c2ccc(-c3cc4c(C(=O)O)c[nH]c4cc3Cl)cc2)CN1 (stereo not shown) [Example 79]", 6.98],
  ["COC(=O)N1CCC(c2ccc(-c3cc4c(C(=O)O)c[nH]c4cc3Cl)cc2)C1 (racemic) [Example 14]", 6.82],
  ["O=C(O)c1c[nH]c2cc(Cl)c(-c3ccc(CC(=O)N4CCOCC4)cc3)cc12 [Example 77]", 6.68],
  ["O=C(O)c1c[nH]c2cc(Cl)c(-c3ccc4c(c3)OCC4)cc12 [Example 57]", 7.19],
  ["NC(=O)Cc1ccc(-c2cc3c(C(=O)O)n[nH]c3cc2Cl)cc1 [Example 123]", 7.00]
]}

Please report the recorded pEC50 for O=C(O)c1c[nH]c2cc(F)c(-c3ccc(C4(CO)CCC4)cc3)c(F)c12 [Example 141] .
8.03

Now give it for O=C(O)c1n[nH]c2cc(Cl)c(-c3ccc4c(c3)OCCO4)cc12 [Example 121] too.
6.43

Now give it for Cc1cc2[nH]cc(C(=O)O)c2cc1-c1ccc(C2(CO)CC2)cc1 [Example 27] too.
7.43

Now give it for O=C(O)c1n[nH]c2cc(Cl)c(-c3ccc([C@H]4C[C@@H](O)C4)cc3)cc12 [Example 120] too.
7.28

Now give it for O=C(O)c1n[nH]c2cc(Cl)c(-c3ccc(C4CCOC4)cc3)cc12 (racemic) [Example 124] too.
7.03

Now give it for O=C(O)c1c[nH]c2cc(F)c(-c3ccc(C4(CO)CCC4)cc3)cc12 [Example 143] too.
7.75

Now give it for N#Cc1cc(C2(O)CCC2)ccc1-c1cc2c(C(=O)O)c[nH]c2cc1Cl [Example 69] too.
6.58

Now give it for O=C(O)c1c[nH]c2cc(Cl)c(-c3ccc(OCCn4cccn4)cc3)cc12 [Example 180] too.
7.94

Now give it for O=S(=O)(O)c1c[nH]c2cc(Cl)c(-c3ccc(C4CCOCC4)cc3)cc12 [Example 134] too.
7.08

Now give it for Cc1cc(-c2cc3c(C(=O)O)c[nH]c3cc2Cl)ccc1C1(O)CCC1 [Example 41] too.
8.02

Now give it for O=C(O)c1c[nH]c2cc(F)c(-c3ccc(C4CCCO4)cc3)c(F)c12 (single isomer, unassigned) [Example 153] too.
6.86

Now give it for O=C(O)c1n[nH]c2cc(F)c(-c3ccc(C4CCOCC4)cc3)cc12 [Example 130] too.
6.52

Now give it for CN1CCC(c2ccc(-c3cc4c(C(=O)O)c[nH]c4cc3Cl)cc2)C1 (stereo not shown) [Example 74] too.
7.35

Now give it for COc1cc(-c2cc3c(C(=O)NS(C)(=O)=O)c[nH]c3cc2Cl)ccc1C(C)(C)CO [Example 177] too.
7.21

Now give it for O=C(O)c1c[nH]c2cc(F)c(-c3ccc(OCCO)cc3)c(F)c12 [Example 24] too.
6.60

Now give it for O=C(O)c1c[nH]c2cc(F)c(-c3ccc(C4CCOCC4)cc3)c(F)c12 [Example 166] too.
6.89

Now give it for O=C(O)c1c[nH]c2cc(Cl)c(-c3ccc(O[C@@H]4CCC[C@H]4O)cc3)cc12 (racemic) [Example 38] too.
6.97

Now give it for CC(CO)Oc1ccc(-c2cc3c(C(=O)O)c[nH]c3cc2Cl)cc1 (stereo not shown) [Example 183] too.
7.55

Now give it for COc1cc(-c2cc3c(C(=O)O)c[nH]c3cc2F)ccc1C1(O)CCC1 [Example 25] too.
6.95
